assay: CRL1545 cell growth, single agent and combined, cisplatin and BGB IC20 combos (AID 1671464); conditions: CRL1545 osteosarcoma cells, single agent, at 5 µM, stronger effect = higher value;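 also: cells exposed to compound for 96 hours before readout; 0% = vehicle DMSO and 100% = high DMSO killing control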
Provide the reported inhibition of each item.
One number for each entry, in %.

Please review the entries below; each comes with its answer.
>  <compound>
COc1cccc2c1C(=O)c1c(O)c3c(c(O)c1C2=O)CC(O)(C(C)=O)CC3OC1CC(N)C(O)C(C)O1 (stereo not drawn)

>  <reported_property>
inhibition

>  <readout_unit>
%

>  <reported>
100

$$$$
>  <compound>
O=c1[nH]c(=S)[nH]c2nc(-c3ccccc3)c(-c3ccccc3)nc12

>  <reported_property>
inhibition

>  <readout_unit>
%

>  <reported>
-50.2

$$$$
>  <compound>
O=c1[nH]c(=O)n(C2CC(O)C(CO)O2)cc1I (stereo not drawn)

>  <reported_property>
inhibition

>  <readout_unit>
%

>  <reported>
6.02

$$$$
>  <compound>
Cc1cn(C2C=CC(CO)O2)c(=O)[nH]c1=O (stereo not drawn)

>  <reported_property>
inhibition

>  <readout_unit>
%

>  <reported>
-21.8

$$$$

# map each compound to its inhibition
1. NC(=O)c1ncn(C2OC(CO)C(O)C2O)c1O (stereo not drawn)
2. NC(=S)NN=Cc1ncccc1N
3. CC(Oc1cc(-c2cnn(C3CCNCC3)c2)cnc1N)c1c(Cl)ccc(F)c1Cl (stereo not drawn)
4. Cn1cnc2[nH]c(=O)[nH]c(=O)c21

1: 22.2; 2: 63.9; 3: 64; 4: -5.96

These data points were gathered from PubChem BioAssay.
